assay: Oral bioavailability in rat; details: in vivo
MEASURED_PROPERTY: bioavailability

>>> print(df.to_string())
                           substance_smiles  result
0  C[C@]12CC[C@H](O)CC1=CC[C@@H]1[C@@H]2CC[C@]2(C)C(n3cnc4ccccc43)=CC[C@@H]12    ~10%
